Tested on: Klebsiella pneumoniae
method-description: Antimicrobial activity against rifampin resistant Klebsiella pneumoniae 52deltaacrR containing isogenic acrR knockout assessed as growth inhibition by Etest method
Assay type: functional
assay-endpoint: log10 of MIC (log10 of the value in µg/mL)
Each number you see is log10 of MIC, and the unit inside the log is µg/mL.

compound="CO/N=C(\\C(=O)N[C@@H]1C(=O)N2C(C(=O)O)=C(COC(C)=O)CS[C@H]12)c1csc(N)n1 [CEFOTAXIME]" test_value=0.60
compound="O=C(N[C@H](CO)[C@H](O)c1ccc([N+](=O)[O-])cc1)C(Cl)Cl [CHLORAMPHENICOL]" test_value=0.60
compound="C[C@H]1COc2c(N3CCN(C)CC3)c(F)cc3c(=O)c(C(=O)O)cn1c23.C[C@H]1COc2c(N3CCN(C)CC3)c(F)cc3c(=O)c(C(=O)O)cn1c23.O [LEVOFLOXACIN]" test_value=-0.72

// for each compound in input: emit log10 of MIC
1. CO[C@@]1(NC(=O)Cc2cccs2)C(=O)N2C(C(=O)O)=C(COC(N)=O)CS[C@@H]21 [CEFOXITIN]
2. NC[C@H]1O[C@H](O[C@H]2[C@H](O)[C@@H](O[C@H]3O[C@H](CO)[C@@H](O)[C@H](N)[C@H]3O)[C@H](N)C[C@@H]2N)[C@H](N)C[C@@H]1O [TOBRAMYCIN]
3. CCn1cc(C(=O)O)c(=O)c2ccc(C)nc21 [NALIDIXIC ACID]
4. C[C@@H](O)[C@H]1C(=O)N2C(C(=O)O)=C(S[C@@H]3CN[C@H](C(=O)Nc4cccc(C(=O)O)c4)C3)[C@H](C)[C@H]12
5. CC[C@H]1OC(=O)[C@H](C)[C@@H](O[C@H]2C[C@@](C)(OC)[C@@H](O)[C@H](C)O2)[C@H](C)[C@@H](O[C@@H]2O[C@H](C)C[C@H](N(C)C)[C@H]2O)[C@](C)(O)C[C@@H](C)C(=O)[C@H](C)[C@@H](O)[C@]1(C)O [ERYTHROMYCIN]
6. C[C@@H](O)[C@H]1C(=O)N2C(C(=O)O)=C(S[C@@H]3CN[C@H](C(=O)N(C)C)C3)[C@H](C)[C@H]12 [MEROPENEM]

1. 1.51
2. -0.60
3. 0.90
4. -1.92
5. 1.51
6. -1.52

// for each compound in input: emit log10 of MIC
1. CN(C)[C@@H]1C(O)=C(C(N)=O)C(=O)[C@@]2(O)C(O)=C3C(=O)c4c(O)cccc4[C@@](C)(O)[C@H]3C[C@@H]12 [TETRACYCLINE]
2. C[C@@H](O)[C@H]1C(=O)N2C(C(=O)O)=C(SCCNC=N)C[C@H]12 [IMIPENEM ANHYDROUS]

0.60
-0.90
